- subject of test: CDK7/cyclinH/MAT1 trimeric complex (Homo sapiens)
- Sequence (P50613 whole entry): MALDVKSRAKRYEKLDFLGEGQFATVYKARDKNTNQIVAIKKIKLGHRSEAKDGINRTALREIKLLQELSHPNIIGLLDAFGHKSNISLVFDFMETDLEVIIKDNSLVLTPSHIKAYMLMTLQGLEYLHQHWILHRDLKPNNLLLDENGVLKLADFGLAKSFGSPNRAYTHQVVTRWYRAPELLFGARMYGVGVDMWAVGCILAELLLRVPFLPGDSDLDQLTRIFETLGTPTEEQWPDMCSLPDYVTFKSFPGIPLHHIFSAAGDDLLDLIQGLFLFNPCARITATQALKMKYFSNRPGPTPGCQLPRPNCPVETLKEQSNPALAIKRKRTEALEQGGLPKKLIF
- Sequence (P51946 whole entry partner): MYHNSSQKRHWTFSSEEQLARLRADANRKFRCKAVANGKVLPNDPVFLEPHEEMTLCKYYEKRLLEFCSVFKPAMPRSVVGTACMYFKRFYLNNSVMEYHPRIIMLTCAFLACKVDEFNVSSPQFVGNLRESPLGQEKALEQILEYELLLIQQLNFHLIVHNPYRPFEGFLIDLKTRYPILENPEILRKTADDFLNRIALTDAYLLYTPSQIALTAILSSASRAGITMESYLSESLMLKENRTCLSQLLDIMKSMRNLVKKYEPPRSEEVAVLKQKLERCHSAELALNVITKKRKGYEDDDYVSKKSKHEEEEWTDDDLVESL
- Sequence (P51948 whole entry partner): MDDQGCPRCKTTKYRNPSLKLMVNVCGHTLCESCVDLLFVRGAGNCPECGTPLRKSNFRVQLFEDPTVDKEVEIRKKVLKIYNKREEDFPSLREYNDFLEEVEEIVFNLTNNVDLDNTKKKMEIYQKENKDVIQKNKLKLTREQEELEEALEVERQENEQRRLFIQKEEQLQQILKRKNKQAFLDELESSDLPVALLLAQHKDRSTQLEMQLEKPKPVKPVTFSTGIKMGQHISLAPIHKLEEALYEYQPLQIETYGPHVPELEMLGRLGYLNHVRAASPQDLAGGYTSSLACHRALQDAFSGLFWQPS
- assay method text: In vitro CDK7 assay, potency of irreversible covalent inhibitors (kinact/KI), coupled PK/LDH ADP readout at 340 nm
- test conditions: read-out: CDK7 (20 nM enz.) (kinact, s^−1), 20 nM enzyme
reported property: kinact (s⁻¹)

[
  {
    "molecule": "Cc1nc(C2CCN(C3CN(C(=O)/C=C/C(=O)OC(C)C)C3)CC2)cc2c1OCc1c(-c3cnn(C)c3)ccnc1N2 [Compound 436]",
    "reported property": "kinact",
    "val": "4.3e-05"
  },
  {
    "molecule": "C=CC(=O)N1CC(N2CCC(c3cc4c(c(C(=O)NC)c3)OCc3c(C5CCOCC5)ccnc3N4)CC2)C1 [Compound 135]",
    "reported property": "kinact",
    "val": "5.71e-05"
  },
  {
    "molecule": "C=CC(=O)N1CC(N2CCC(c3cc4c(c(C)n3)O[C@H](C)c3c(N5CCOCC5)ccnc3N4)CC2)C1 (single isomer, unassigned) [Compound 262]",
    "reported property": "kinact",
    "val": "3.71e-05"
  },
  {
    "molecule": "C=CC(=O)N1CCC(N2CCC(c3cc4c(c(C)n3)OCc3c(N5CCOCC5)ccnc3N4)CC2)CC1 [compound 324]",
    "reported property": "kinact",
    "val": "5.03e-05"
  },
  {
    "molecule": "C=CC(=O)N1CC(N2CC(c3cc(F)c4c(c3)Nc3nccc(N5CCOCC5)c3CO4)C2)C1 [Compound 166]",
    "reported property": "kinact",
    "val": "5.16e-05"
  },
  {
    "molecule": "C=CC(=O)N1CC(N2CC(c3ccc4c(c3)Nc3nccc(-c5cnn(C)c5)c3CO4)C2)C1 [Compound 176]",
    "reported property": "kinact",
    "val": "5.38e-05"
  },
  {
    "molecule": "C=CC(=O)N1CC(N2CCC(c3ccc4c(c3)Nc3nccc(-c5cnn(C)c5)c3[C@H](C)O4)CC2)C1 (single isomer, unassigned) [Compound 128]",
    "reported property": "kinact",
    "val": 0.000115
  },
  {
    "molecule": "CC#CC(=O)N1CC(N2CC(c3cc4c(c(C)n3)O[C@H](C)c3c(C5CCOCC5)ccnc3N4)C2)C1 (single isomer, unassigned) [Compound 488]",
    "reported property": "kinact",
    "val": "4.23e-05"
  },
  {
    "molecule": "CC#CC(=O)N1CCC(N2CCN(c3cc4c(c(C)n3)OCc3c(N5CCOCC5)ccnc3N4)CC2)CC1 [Compound 393]",
    "reported property": "kinact",
    "val": "2.18e-05"
  },
  {
    "molecule": "C=CC(=O)N1CCC(c2nc(C)c(-c3cc(C)c4c(c3)Nc3nccc(C5CCOCC5)c3CO4)c(C)n2)CC1 [Compound 116]",
    "reported property": "kinact",
    "val": "5.05e-05"
  },
  {
    "molecule": "CC#CC(=O)N1CC(N2CCC(c3cc4c(c(C5CC5)n3)O[C@@H](C)c3c(N5CCOCC5)ccnc3N4)CC2)C1 (single isomer, unassigned) [Compound 498]",
    "reported property": "kinact",
    "val": "5.15e-05"
  },
  {
    "molecule": "C=CC(=O)N1CC(N2CCC(c3cc4c(c(C#N)n3)OCc3c(-c5cnn(C)c5)ccnc3N4)CC2)C1 [Compound 298]",
    "reported property": "kinact",
    "val": "8.92e-05"
  },
  {
    "molecule": "C=CC(=O)N1CC[C@@H](N2CC(c3cc4c(c(C)n3)OCc3c(N5CCOCC5)ccnc3N4)C2)[C@H](F)C1 (mixture of isomers) [Compound 220]",
    "reported property": "kinact",
    "val": "2.74e-05"
  },
  {
    "molecule": "C=CC(=O)N1CC(N2CCN(c3cc4c(c(C)n3)OCc3c(N5CCOCC5)ccnc3N4)CC2)C1 [Compound 237]",
    "reported property": "kinact",
    "val": "3.42e-05"
  },
  {
    "molecule": "C=CC(=O)N1CC[C@@H](N2CC(c3cc(C)c4c(c3)Nc3nccc(-c5cnn(C)c5)c3CO4)C2)C1 (single isomer, unassigned) [Compound 194]",
    "reported property": "kinact",
    "val": "4.72e-05"
  },
  {
    "molecule": "C=CC(=O)N1CCC(N2CC(c3cc4c(c(C)n3)OCc3c(-c5cnn(C)c5)ccnc3N4)C2)CC1 [Compound 170]",
    "reported property": "kinact",
    "val": "3.7e-05"
  },
  {
    "molecule": "CC#CC(=O)N1CC(N2CCC(c3cc4c(c(C)n3)O[C@H](C)c3c(-c5cnn(C)c5)ccnc3N4)CC2)C1 (single isomer, unassigned) [Compound 541]",
    "reported property": "kinact",
    "val": "4.94e-05"
  },
  {
    "molecule": "CC#CC(=O)N1CC(N2CCC(c3cc4c(c(C5CC5)n3)OCc3c(N5CCOCC5)ccnc3N4)CC2)C1 [Compound 403]",
    "reported property": "kinact",
    "val": "4.63e-05"
  },
  {
    "molecule": "C=CC(=O)N1CC[C@H](N2CC(c3cc4c(c(C)n3)OCc3c(C5CCOCC5)ccnc3N4)C2)[C@H](F)C1 (mixture of isomers) [Compound 236]",
    "reported property": "kinact",
    "val": "3.05e-05"
  },
  {
    "molecule": "C#CCCN(C)C/C=C/C(=O)N1CC(N2CCC(c3ccc4c(c3)Nc3nccc(C5CCOCC5)c3C(C)O4)CC2)C1 (stereo not shown) [Compound 147]",
    "reported property": "kinact",
    "val": "5.84e-05"
  },
  {
    "molecule": "C=CC(=O)N1CC[C@@H](N2CC(c3cc4c(c(C(F)(F)F)n3)OCc3c(-c5cnn(C)c5)ccnc3N4)C2)C1 (single isomer, unassigned) [Compound 495]",
    "reported property": "kinact",
    "val": "5.75e-05"
  },
  {
    "molecule": "C=CC(=O)N1CC(N2CC(c3cc4c(cn3)O[C@@H](C)c3c(-c5cnn(C)c5)ccnc3N4)C2)C1 (single isomer, unassigned) [compound 300]",
    "reported property": "kinact",
    "val": "3.59e-05"
  },
  {
    "molecule": "CC#CC(=O)N1CC(N2CC[C@@H](c3cc4c(c(C)n3)OCc3c(N5CCOCC5)ccnc3N4)C2)C1 (single isomer, unassigned) [Compound 386]",
    "reported property": "kinact",
    "val": "1.64e-05"
  },
  {
    "molecule": "C=CC(=O)N1CC[C@@H](N2CCC(c3cc4c(c(C)n3)OCc3c(N5CCOCC5)ccnc3N4)CC2)C1 (single isomer, unassigned) [Compound 184]",
    "reported property": "kinact",
    "val": "6.03e-05"
  },
  {
    "molecule": "C=CC(=O)N1CC[C@H](N2CC(c3cc(C)c4c(c3)Nc3nccc(N5CCOCC5)c3CO4)C2)C1 (single isomer, unassigned) [Compound 329]",
    "reported property": "kinact",
    "val": "3.81e-05"
  }
]
